Origin of the recorded values: PubChem BioAssay (NCI)

Test system: OVCAR-8 ovarian
Assay: NCI-60 one-dose screen, 48 h
Conditions: 10 µM unless noted
The panel holds about 83,000 compounds, 20% with a hit somewhere; the sample as a whole holds those more often. Activity calls are given as the source filed them. The calls were made as follows: active = growth percent below 10; inactive = the rest.
Reply using exactly one outcome from T for active, F for inactive

Please review the following examples before continuing.
[
  {
    "MOLECULE": "Oc1[nH]c2ccccc2c1/C=c1/cc2c(c(-c3ccc(F)cc3)n1)=Nc1ccccc1-2",
    "CLASS_ASSIGNMENT": "T"
  },
  {
    "MOLECULE": "Cc1cnc(Nc2ccc(N3CCN(C)CC3)cc2)nc1Nc1ccc(Cl)c(NS(=O)(=O)C(C)(C)C)c1",
    "CLASS_ASSIGNMENT": "F"
  }
]

What outcome does the record of this test show for C#CC[C@H](N)C(=O)O ? F

What outcome does the record of this test show for COc1ccc(-c2cc(-c3ccc(Nc4nc(Nc5ccccc5)nc(Nc5ccc(Cl)cc5)n4)cc3)nc(N)n2)cc1 ? F

What outcome does the record of this test show for O=C(NCOC(O)C(Cl)(Cl)Cl)NCOC(O)C(Cl)(Cl)Cl (stereo not given) ? F
